Test system: Plasmodium berghei
Assay: Luciferase/luciferin-expressing antifolate-resistant parasites were used to infect a culture of HepG2 cells that were pre-incubated with compounds. Infected hepatocytes emit light due to the luciferase reaction. Assay results are presented as the percent inhibition of light emission compared to control. […]
Format: functional
Settings: sporozoite, PBLUC_HILL_SLOPE 4.21, PBLUC_R_SQUARED 0.368, read-out: LUCIFERASE INFECTION ASSAY - IC50
parameter_measured: pIC50
For clarity, pIC50 is expressed as the negative log10 of concentration in mol/L.

Return reported pIC50. Input compound: COc1ccc(C2CC(=O)c3cnn(-c4nc(C)cc(C)n4)c3C2)cc1 (stereo unspecified)
5.54
